Where do the numbers come from? From patent US20040127492A1.

target: MAPKAPK2 (MK-2) (Homo sapiens); assay: Determination of MK-2 IC50 (HSP-peptide phosphorylation, anion exchange resin capture assay); format: biochemical; conditions: read-out: MK-2 Avg. IC50
Sequence (P49137 whole entry, species assumed): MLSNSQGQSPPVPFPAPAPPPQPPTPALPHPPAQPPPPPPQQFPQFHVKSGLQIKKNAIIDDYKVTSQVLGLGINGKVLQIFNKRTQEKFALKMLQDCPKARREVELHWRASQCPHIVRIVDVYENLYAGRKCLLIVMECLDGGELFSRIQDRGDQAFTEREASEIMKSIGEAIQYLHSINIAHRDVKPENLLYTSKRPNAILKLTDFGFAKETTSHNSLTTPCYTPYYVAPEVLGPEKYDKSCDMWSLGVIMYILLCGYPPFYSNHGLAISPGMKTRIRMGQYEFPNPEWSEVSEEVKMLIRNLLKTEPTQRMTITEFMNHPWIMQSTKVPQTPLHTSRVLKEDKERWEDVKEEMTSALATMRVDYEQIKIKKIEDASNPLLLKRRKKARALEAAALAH
test_readout: log10 of IC50 (log10 of the value in nM)
Please be aware that the numbers have been log10-transformed from IC50 in nM.

Worked cases, log10 of IC50 given:
| compound | quantitative_result |
| --- | --- |
| O=C(O)c1c2c(nn1CCCNCCc1ccc(-c3ccncc3)cc1)-c1ccncc1CC2 [Example 37] | 2.32 |
| O=C(O)c1c2c(nn1CCCNCCC(c1ccccc1)c1ccccc1)-c1ccncc1CC2 [Example 80] | 3.07 |
| N#Cc1cccc(-c2cc3c(cn2)CCc2c-3nn(CCCN)c2C(=O)O)c1 [Example 8] | 1.48 |
| CC(C)(C)c1ccc(-c2cc3c(cn2)CCc2c-3nn(CCCN)c2C(=O)O)cc1 [Example 22] | 2.05 |
| O=C(O)c1c2c(nn1CCCNCCc1ccc(-c3cccc(C(F)(F)F)c3)cc1)-c1ccncc1CC2 [Example 21] | 2.01 |
| CN(C)c1ccc(-c2cc3c(cn2)CCc2c-3nn3c2C(=O)NCC3)cc1 [Example 42] | 2.43 |
| O=C(O)c1c2c(nn1CCCNCCc1ccc(-c3cccnc3)cc1)-c1ccncc1CC2 [Example 55] | 2.72 |
| CC(=O)c1ccc(CCCNCCCn2nc3c(c2C(=O)O)CCc2cnccc2-3)cc1 [Example 63] | 2.78 |
| O=C(O)c1c2c(nn1CCCNCCc1ccc(-c3ccc(C(F)(F)F)cc3)cc1)-c1ccncc1CC2 [Example 26] | 2.17 |
| NCC1Cn2nc3c(c2C(=O)N1)CCc1cnccc1-3 (stereo not drawn) [Example 49] | 2.63 |

GET /values?readout=log10 of IC50&item= O=C1NCCn2nc3c(c21)CCc1cnc(N2Cc4ccccc4C2)cc1-3 [Example 157]
3.98

Okay, and NCCCn1nc2c(c1C(=O)O)CCc1cnccc1-2 [Example 64] ?
2.79

Next compound: O=C(O)c1c2c(nn1CCCNCCc1ccc(-c3ccccc3C(F)(F)F)cc1)-c1ccncc1CC2 [Example 70]
2.90
